B1: Double-stranded RNA-binding protein Staufen homolog 1, residues 183 to 249; numbered along this chain, O95793 (parent)
chain: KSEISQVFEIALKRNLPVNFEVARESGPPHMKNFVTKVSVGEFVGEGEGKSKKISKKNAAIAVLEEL

# Variants of: B1
# assay overview: abundance fitness (aPCA) (normalised: wild type 0, dead -1); higher = more abundant; growth selection in yeast, the domain comes from the species named
# conditions: Homo sapiens
Class assignment keyed on abundance fitness, ranges c1 (below -0.7), c2 (-0.7 to below -0.1), c3 (-0.1 or more)

KSEISQVFEIALKRNLPVNFEVARESGPIHMKNFVTKVSVGEFVGEGEGKSKKISKKNAAIAVLEEL = c2
KSEISQVFEIALKRNLPVNFEVARESGPPHMKNFVTKVSVGEFVGEGEGKSKKISKKNAAIAVLEWL = c3
KSEISQVFEIALKRNLPFNFEVARESGPPHMKNFVTKVSVGEFVGEGEGKSKKISKKNAAIAVLEEL = c1
KSEISQVFEIALKRNLPVNFEVARESGPPHMKNFQTKVSVGEFVGEGEGKSKKISKKNAAIAVLEEL = c3
KSEISQVFEIALKRNLPVNFEVARESGPPHIKNFVTKVSVGEFVGEGEGKSKKISKKNAAIAVLEEL = c2

Query :: Bin? KSEISQVFEIALKRNLPVNFEVARESGPPHMKNFVTKVSVEEFVGEGEGKSKKISKKNAAIAVLEEL
Result :: c2

Query :: // repeat for KSEISQVFEITLKRNLPVNFEVARESGPPHMKNFVTKVSVGEFVGEGEGKSKKISKKNAAIAVLEEL and report
Result :: c2

Query :: // repeat for KSEISQVFEIALKRNLPVNFEVARESGPPHMKNFVTKVSVGEFVGEGEGKSKKISKKNAAIAVLEML and report
Result :: c3

Query :: // repeat for KSEISQVFEIALKRNLPVNFEVARESGPPHMKNFVTKYSVGEFVGEGEGKSKKISKKNAAIAVLEEL and report
Result :: c1

Query :: // repeat for KSEISQVFEIALKRNLPVNFEVWRESGPPHMKNFVTKVSVGEFVGEGEGKSKKISKKNAAIAVLEEL and report
Result :: c2

Query :: // repeat for KSEISQVFEIWLKRNLPVNFEVARESGPPHMKNFVTKVSVGEFVGEGEGKSKKISKKNAAIAVLEEL and report
Result :: c1
